- Assayed system: human M2 receptor (human Muscarinic receptor subtype 2) (Homo sapiens)
- Sequence (P08172 whole entry): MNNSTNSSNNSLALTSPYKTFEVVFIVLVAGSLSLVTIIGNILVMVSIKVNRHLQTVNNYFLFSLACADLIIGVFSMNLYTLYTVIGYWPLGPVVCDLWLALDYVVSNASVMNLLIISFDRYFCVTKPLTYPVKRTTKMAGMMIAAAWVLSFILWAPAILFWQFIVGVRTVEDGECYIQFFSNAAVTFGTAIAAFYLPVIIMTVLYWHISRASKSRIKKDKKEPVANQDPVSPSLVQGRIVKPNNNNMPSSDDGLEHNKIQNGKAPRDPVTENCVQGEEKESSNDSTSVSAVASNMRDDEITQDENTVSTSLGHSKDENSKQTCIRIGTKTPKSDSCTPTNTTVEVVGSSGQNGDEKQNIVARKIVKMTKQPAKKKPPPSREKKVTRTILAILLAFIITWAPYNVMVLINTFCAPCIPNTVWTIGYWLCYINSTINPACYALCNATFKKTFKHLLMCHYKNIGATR
- Method notes: hM2 receptor GTPγS binding
- Recorded conditions: CHO membranes, [35S]GTPγS binding
- Procedure: Membranes produced from Chinese hamster ovary cells (CHO) expressing the cloned human M2 receptor (human Muscarinic receptor subtype 2, gene bank access NM_000739), are obtained from Perkin-Elmer (RBHM2M). […] The EC50, IC50 and Emax of the compounds of the invention are evaluated from 10-point dose-response curves (three fold concentration range) done in 60 μl in 384-well non-specific binding surface plate (Corning). […] The radioactivity (cpm) is counted in a Trilux (Perkin-Elmer). […]
Measurement name: EC50

Known results for compounds:
[
  {
    "Compound": "O=C(C1CC1)N1CCC(N2CCC(N3C(=O)NC[C@H]4CCCC[C@@H]43)CC2)CC1",
    "EC50": "> 12 µM"
  },
  {
    "Compound": "CCOC(=O)N1CCC(N2CCC(N3C(=O)NC[C@H]4CCCC[C@@H]43)CC2)CC1",
    "EC50": "0.38 µM"
  },
  {
    "Compound": "Cn1cccc1C(=O)N1CCC(N2CCC(N3C(=O)CO[C@H]4CCCC[C@@H]43)CC2)CC1",
    "EC50": "> 30 µM"
  },
  {
    "Compound": "CC(C)OC(=O)N1CCC(N2CCC(N3C(=O)NC[C@H]4CCCC[C@@H]43)CC2)CC1",
    "EC50": "> 1.2 µM"
  },
  {
    "Compound": "CC(C)OC(=O)N1CCC(C)(N2CCC(N3C(=O)NC[C@H]4CCCC[C@@H]43)CC2)CC1",
    "EC50": "> 30 µM"
  }
]

Exercise: What is its EC50 for human M2 receptor (human Muscarinic receptor subtype 2) (Homo sapiens)? Entry: CCOC(=O)N1CC[C@H](N2CCC(N3C(=O)CO[C@H]4CCCC[C@@H]43)CC2)C1
Solution: > 30 µM

Exercise: Please state recorded EC50 (tested on human M2 receptor (human Muscarinic receptor subtype 2) (Homo sapiens)) of CCOC(=O)N1CCC(C)(N2CCC(N3C(=O)CO[C@H]4CCCC[C@@H]43)CC2)C1 (single isomer, unassigned) [Example 19]
Solution: > 40 µM

----------
- Assayed system: hM3 (human Muscarinic receptor subtype 3) (Homo sapiens, UniProt P20309)
- Construct: expressed in transfected cells; host or cells: CHO cells (Chinese hamster ovary cells, ATCC)
- Sequence (P20309 whole entry): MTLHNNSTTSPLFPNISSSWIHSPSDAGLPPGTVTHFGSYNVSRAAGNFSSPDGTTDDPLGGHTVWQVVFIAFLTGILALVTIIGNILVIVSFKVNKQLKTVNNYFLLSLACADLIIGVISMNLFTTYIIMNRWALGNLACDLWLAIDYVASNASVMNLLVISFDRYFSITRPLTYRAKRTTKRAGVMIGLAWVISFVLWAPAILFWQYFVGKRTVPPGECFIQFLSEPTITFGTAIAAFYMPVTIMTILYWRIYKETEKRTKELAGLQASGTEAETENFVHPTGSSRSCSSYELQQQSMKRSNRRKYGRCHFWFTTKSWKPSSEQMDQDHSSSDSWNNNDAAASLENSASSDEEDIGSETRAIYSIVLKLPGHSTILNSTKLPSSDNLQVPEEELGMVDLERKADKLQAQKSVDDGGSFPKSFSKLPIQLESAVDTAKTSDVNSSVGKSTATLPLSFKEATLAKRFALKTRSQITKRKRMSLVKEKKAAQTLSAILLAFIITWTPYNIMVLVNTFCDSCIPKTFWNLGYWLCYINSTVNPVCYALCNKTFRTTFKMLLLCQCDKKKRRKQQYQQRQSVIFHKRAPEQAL
- Method notes: Human M3 calcium mobilization FLIPR assay
- Assay type: cell-based
- Recorded conditions: receptor expressed in CHO cells, intracellular Ca2+ release
pEC50: −log10 of the molar value.
Measurement name: pEC50

Exercise: What value of measured pEC50 is listed for CC(C)OC(=O)N1CCC(C)(N2CCC(N3C(=O)NC[C@H]4CCCC[C@@H]43)CC2)CC1 ?
Solution: < 4.40

Exercise: Recorded pEC50 for Cn1cccc1C(=O)N1CCC(N2CCC(N3C(=O)CO[C@H]4CCCC[C@@H]43)CC2)CC1 , please?
Solution: < 4.40

Exercise: Given CC(C)OC(=O)N1CCC(N2CCC(N3C(=O)CO[C@H]4CCCC[C@@H]43)CC2)CC1 , state its recorded pEC50.
Solution: < 4.40

Exercise: # query: pEC50 of entry CC(C)OC(=O)N1CCC(N2CCC(N3C(=O)CO[C@@H]4CCCC[C@H]43)CC2)CC1
Solution: < 4.40

Exercise: Bench note: what pEC50 did Cc1ccccc1C(=O)N1CCC(N2CCC(N3C(=O)CO[C@H]4CCCC[C@@H]43)CC2)CC1 show?
Solution: < 4.40

Exercise: Quick check: pEC50 of CCOC(=O)N1CCC(N2CCC(N3C(=O)CO[C@H]4CCCC[C@@H]43)CC2)CC1 ?
Solution: < 4.40

Exercise: Consider the molecule CCOC(=O)N1CC[C@H](N2CCC(N3C(=O)CO[C@H]4CCCC[C@@H]43)CC2)C1 and give its measured pEC50.
Solution: < 4.40

Exercise: What does the data say about its pEC50? Entry: CC(C)OC(=O)N1CCC(N2CCC(N3C(=O)NC[C@H]4CCCC[C@@H]43)CC2)CC1
Solution: < 4.31

Exercise: Entry under review: CCOC(=O)N1CCC(C)(N2CCC(N3C(=O)NC[C@H]4CCCC[C@@H]43)CC2)CC1 . Reported pEC50?
Solution: 6.16

----------
- Assayed system: human M4 receptor (human Muscarinic receptor subtype 4) (Homo sapiens, UniProt P08173)
- Sequence (P08173 1-479): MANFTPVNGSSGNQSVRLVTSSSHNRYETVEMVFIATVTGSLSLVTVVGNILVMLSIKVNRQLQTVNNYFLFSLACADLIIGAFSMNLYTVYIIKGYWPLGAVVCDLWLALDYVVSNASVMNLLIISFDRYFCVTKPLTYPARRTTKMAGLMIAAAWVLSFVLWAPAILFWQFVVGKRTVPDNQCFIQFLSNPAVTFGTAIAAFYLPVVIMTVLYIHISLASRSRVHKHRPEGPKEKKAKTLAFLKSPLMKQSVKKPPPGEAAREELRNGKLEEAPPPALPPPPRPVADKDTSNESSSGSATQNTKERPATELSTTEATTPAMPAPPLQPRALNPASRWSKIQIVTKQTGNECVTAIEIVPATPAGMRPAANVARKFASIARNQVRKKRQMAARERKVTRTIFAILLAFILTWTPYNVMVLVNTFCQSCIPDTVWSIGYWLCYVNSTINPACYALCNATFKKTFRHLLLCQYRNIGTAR
- Method notes: hM4 receptor GTPγS binding
- Recorded conditions: CHO membranes, [35S]GTPγS binding
pEC50: −log10 of the molar value.
Let's look at some molecules and their measured pEC50.

[
  {
    "Molecule": "CC(C)OC(=O)N1CCC(N2CCC(N3C(=O)N(C)C[C@H]4CCCC[C@@H]43)CC2)CC1 [Example 6]",
    "Assayed system": "human M4 receptor (human Muscarinic receptor subtype 4) (Homo sapiens, UniProt P08173)",
    "pEC50": "< 4.52"
  },
  {
    "Molecule": "CCOC(=O)N1CCC(N2CCC(N3C(=O)OC[C@H]4CCCC[C@@H]43)CC2)CC1 [Example 15]",
    "Assayed system": "human M4 receptor (human Muscarinic receptor subtype 4) (Homo sapiens, UniProt P08173)",
    "pEC50": "< 4.52"
  }
]

Exercise: // lookup pEC50 | system=human M4 receptor (human Muscarinic receptor subtype 4) (Homo sapiens, UniProt P08173) | key= CCOC(=O)N1CC[C@H](N2CCC(N3C(=O)CO[C@H]4CCCC[C@@H]43)CC2)C1 [Example 13]
Solution: < 4.52

Exercise: Param readout= pEC50; system= human M4 receptor (human Muscarinic receptor subtype 4) (Homo sapiens, UniProt P08173); entry= O=C(C1CC1)N1CCC(N2CCC(N3C(=O)NC[C@H]4CCCC[C@@H]43)CC2)CC1 [Example 3] ; returns value.
Solution: < 4.52

----------
- Assayed system: hM1 (human Muscarinic receptor subtype 1) (Homo sapiens, UniProt P11229)
- Construct: expressed in transfected cells; host or cells: CHO cells (Chinese hamster ovary cells, ATCC)
- Sequence (P11229 whole entry): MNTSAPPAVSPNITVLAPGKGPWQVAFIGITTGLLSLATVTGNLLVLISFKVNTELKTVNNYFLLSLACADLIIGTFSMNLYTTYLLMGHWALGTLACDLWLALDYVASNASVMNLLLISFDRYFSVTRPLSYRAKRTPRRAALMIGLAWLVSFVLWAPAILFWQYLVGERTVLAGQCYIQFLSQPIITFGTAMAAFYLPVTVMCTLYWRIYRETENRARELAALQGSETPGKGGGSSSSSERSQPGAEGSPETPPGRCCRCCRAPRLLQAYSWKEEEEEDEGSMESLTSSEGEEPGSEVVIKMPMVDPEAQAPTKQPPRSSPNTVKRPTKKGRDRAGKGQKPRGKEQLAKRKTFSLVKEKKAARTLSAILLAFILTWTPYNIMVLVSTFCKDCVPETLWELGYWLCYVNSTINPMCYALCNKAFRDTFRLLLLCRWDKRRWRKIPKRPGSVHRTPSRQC
- Method notes: Human M1 calcium mobilization FLIPR assay
- Assay type: cell-based
- Recorded conditions: receptor expressed in CHO cells, intracellular Ca2+ release; read-out: hM1 EC50
Measurement name: EC50 (nM)

Sample records with EC50:
[
  {
    "Compound": "Cc1ccccc1C(=O)N1CCC(N2CCC(N3C(=O)CO[C@H]4CCCC[C@@H]43)CC2)CC1",
    "EC50 / nM": 170
  },
  {
    "Compound": "CC(C)OC(=O)N1CCC(N2CCC(N3C(=O)NC[C@H]4CCCC[C@@H]43)CC2)CC1",
    "EC50 / nM": 5.3
  },
  {
    "Compound": "CCOC(=O)N1CCC(N2CCC(N3C(=O)NC[C@H]4CCCC[C@@H]43)CC2)C1 (stereo partly drawn)",
    "EC50 / nM": 31
  },
  {
    "Compound": "CC(C)OC(=O)N1CCC(N2CCC(N3C(=O)N(C)C[C@H]4CCCC[C@@H]43)CC2)CC1",
    "EC50 / nM": 94
  },
  {
    "Compound": "CC(C)OC(=O)N1CCC(N2CCC(N3C(=O)CO[C@@H]4CCCC[C@H]43)CC2)CC1",
    "EC50 / nM": 130
  },
  {
    "Compound": "CC(C)OC(=O)N1CCC(N2CCC(N3C(=O)CO[C@H]4CCCC[C@@H]43)CC2)CC1",
    "EC50 / nM": 22
  }
]

a: CCOC(=O)N1CCC(N2CCC(N3C(=O)OC[C@H]4CCCC[C@@H]43)CC2)CC1
b: CCOC(=O)N1CC[C@H](N2CCC(N3C(=O)CO[C@H]4CCCC[C@@H]43)CC2)C1
Exercise: Lower EC50: a or b ? Give the label under which the chosen entry appears.
Solution: a

A: CCOC(=O)N1CCC(C)(N2CCC(N3C(=O)CO[C@H]4CCCC[C@@H]43)CC2)C1 (single isomer, unassigned) [Example 18]
B: COc1ccsc1C(=O)N1CCC(N2CCC(N3C(=O)OC[C@H]4CCCC[C@@H]43)CC2)CC1 (racemic)
Exercise: Hi there! Just curious which has the higher EC50 between A and B . Indicate your choice by writing its label.
Solution: B

I: Cc1ccccc1C(=O)N1CCC(N2CCC(N3C(=O)NC[C@H]4CCCC[C@@H]43)CC2)CC1
II: CCOC(=O)N1CCC(N2CCC(N3C(=O)CO[C@H]4CCCC[C@@H]43)CC2)CC1
Exercise: Return label of the item with the larger EC50. Candidates: I , II . Write the label of whichever entry you select.
Solution: I
(I: 25 nM, II: 17 nM)

P: O=C(C1CC1)N1CCC(N2CCC(N3C(=O)NC[C@H]4CCCC[C@@H]43)CC2)CC1
Q: CCOC(=O)N1CCC(C)(N2CCC(N3C(=O)CO[C@H]4CCCC[C@@H]43)CC2)C1 (single isomer, unassigned) [Example 19]
Exercise: Among P and Q , which shows a numerically higher EC50 result? Reply with the label of the item you choose.
Solution: Q

The reported numbers originate from patent US20090221567A1.
